# TARGET_OR_TEST_SYSTEM: human JAK2 kinase domain (JH1) (Homo sapiens)
# Construct: recombinantly generated catalytic kinase (also known as JH1) domain of human JAK1, JAK2, JAK3 and TYK2
# Sequence (O60674 849-1124 limits assumed): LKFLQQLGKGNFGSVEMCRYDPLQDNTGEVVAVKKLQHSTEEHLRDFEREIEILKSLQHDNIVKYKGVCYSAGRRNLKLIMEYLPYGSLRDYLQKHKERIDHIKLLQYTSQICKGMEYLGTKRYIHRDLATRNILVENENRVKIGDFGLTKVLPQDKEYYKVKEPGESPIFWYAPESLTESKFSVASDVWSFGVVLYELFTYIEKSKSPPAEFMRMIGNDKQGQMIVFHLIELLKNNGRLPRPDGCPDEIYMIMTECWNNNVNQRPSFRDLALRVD
# ASSAY_EXPLANATION: JH1 biochemical assay for JAK2 (ADP-Glo kinase assay, recombinant JH1 catalytic domain, JAK3-974 peptide, 15 μM ATP)
# EXPERIMENTAL_CONTEXT: JH1 kinase domain, ADP-Glo
Structures can show the parent of a compound that is named as a salt.
MEASUREMENT_LABEL: IC50

Solved entries (count: 8):
{"COMPOUND": "COc1cc(-c2cc3c(N4C[C@@H](C)[C@@](C#N)(C5CC5)C4=O)ccnn3c2)c(OC)nn1 [Example 98]", "IC50": "1000 to 5000 nM"}
{"COMPOUND": "C[C@@H]1CN(c2ccnn3cc(-c4cnn(C)c4)cc23)C(=O)[C@]1(C#N)C1COC1 [Example 20]", "IC50": "5000 to 10000 nM"}
{"COMPOUND": "COc1ncc(-c2cc3c(N4C[C@@H](C)[C@@](C#N)(C5CC5)C4=O)ccnn3c2)cn1 [Example 76]", "IC50": "1000 to 5000 nM"}
{"COMPOUND": "Cn1cc(-c2cc3c(N4CC[C@@](C#N)(C5CC5)C4=O)ccnc3[nH]2)cn1 [Example 4]", "IC50": "< 100 nM"}
{"COMPOUND": "CC(C)n1cc(-c2cn3ncc(F)c3c(N3C[C@@H](C)[C@@](C#N)(C4CC4)C3=O)n2)cn1 [Example 190]", "IC50": "< 100 nM"}
{"COMPOUND": "COc1ccnc(-c2cc3c(N4C[C@@H](C)[C@@](C#N)(C5CC5)C4=O)ccnn3c2)n1 [Example 122, trifluoroacetate]", "IC50": "> 10000 nM"}
{"COMPOUND": "COc1ncccc1-c1cc2c(N3C[C@@H](C)[C@@](C#N)(C4CC4)C3=O)ccnn2c1 [Example 96]", "IC50": "1000 to 5000 nM"}
{"COMPOUND": "C[C@@H]1CN(c2nc(-c3cnc4c(c3)CC(=O)N4)cn3nccc23)C(=O)[C@]1(C#N)C1CC1 [Example 205]", "IC50": "< 100 nM"}

State the recorded IC50 for this entry: C[C@@H]1CN(c2ccnn3cc(-c4cncn4C)cc23)C(=O)[C@]1(C#N)C1CC1 [Example 89]
1000 to 5000 nM

State the recorded IC50 for this entry: Cc1ccc(O)c(-c2cc3c(N4C[C@@H](C)[C@@](C#N)(C5CC5)C4=O)ccnn3c2)n1 [Example 140, trifluoroacetate]
> 10000 nM

State the recorded IC50 for this entry: COC[C@@]1(C#N)CCN(c2ccnn3cc(-c4cnn(C)c4)cc23)C1=O (single isomer, unassigned) [Example 40]
100 to 1000 nM

State the recorded IC50 for this entry: C[C@@H]1CN(c2ccnn3cc(-c4ccnc(F)c4)cc23)C(=O)[C@]1(C#N)C1CC1 [Example 73]
100 to 1000 nM

State the recorded IC50 for this entry: CCc1ccc(-c2cc3c(N4C[C@@H](C)[C@@](C#N)(C5CC5)C4=O)ccnn3c2)cn1 [Example 174, trifluoroacetate]
100 to 1000 nM

State the recorded IC50 for this entry: C[C@@H]1CN(c2ccnn3cc(-c4ccc(CC#N)cn4)cc23)C(=O)[C@]1(C#N)C1CC1 [Example 127, trifluoroacetate]
100 to 1000 nM
